The values you see were collected from paper PMC7767221.

# Tested on: A2780cisR cells
# test_description: Growth inhibition, 72 h, cell density by Casy cell analyzer
# Type: cell-based, human
# condition_context: 72 h exposure, mean ± SD
measured_quantity: IC50 (µM)
Express your answer in µM, writing the number without its unit.

Look at this compound and give its reported IC50. N.N.[Cl][Pt][Cl] [cisPt, cis-diamminedichloroplatinum(II)]
4.08
